pIC50: −log10 of the molar value.
Below are compounds with their pIC50 as measured on UniProt:P33261.
Sequence (P33261 whole entry): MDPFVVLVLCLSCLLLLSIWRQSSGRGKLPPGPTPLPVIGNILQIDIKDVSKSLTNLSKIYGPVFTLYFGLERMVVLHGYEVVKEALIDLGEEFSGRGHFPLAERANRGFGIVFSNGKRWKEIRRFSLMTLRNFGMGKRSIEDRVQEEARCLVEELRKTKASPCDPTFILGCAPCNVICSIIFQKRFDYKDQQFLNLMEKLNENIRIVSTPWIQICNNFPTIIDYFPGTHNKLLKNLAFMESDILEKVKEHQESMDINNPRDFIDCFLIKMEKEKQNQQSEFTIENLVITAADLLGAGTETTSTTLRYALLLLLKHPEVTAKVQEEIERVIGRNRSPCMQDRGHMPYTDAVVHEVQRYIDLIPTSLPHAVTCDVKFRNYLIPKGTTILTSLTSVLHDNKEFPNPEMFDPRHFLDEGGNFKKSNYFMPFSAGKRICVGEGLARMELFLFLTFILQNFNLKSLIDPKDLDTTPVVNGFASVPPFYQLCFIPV

Record excerpt, results attached:
C=C[C@]1(C)C[C@@H](OC(=O)CSc2cncc(NC(=O)CN3CCC(O)CC3)c2)[C@]2(C)[C@H](C)CC[C@]3(CCC(=O)[C@H]32)[C@@H](C)[C@@H]1O | < 4.60
C=C[C@]1(C)C[C@@H](OC(=O)CSc2ccccn2)[C@]2(C)[C@H](C)CC[C@]3(CCC(=O)[C@H]32)[C@@H](C)[C@@H]1O | < 5.00

API: the following record is the query input.
Reported pIC50 (UniProt:P33261) for entry `C=C[C@]1(C)C[C@@H](OC(=O)CS[C@@H]2CC[C@@H](N)C[C@H]2O)[C@]2(C)[C@H](C)CC[C@]3(CCC(=O)[C@H]32)[C@@H](C)[C@@H]1O` is < 4.60

Cited source: ChEMBL document CHEMBL3286253
